# key: entry, value: shrunken log2 fold change
# Test system: Escherichia coli TOP10
# experimental.protocol: shrunken log2 fold change of peptide-encoding DNA abundance (4.5 h post-induction vs induction); higher = less antimicrobial activity (less host growth inhibition)
# condition.info: time post-induction: 4.5 h; library: site-saturation at positions 5, 18, 19, 20

biopolymer.sequence	target.under.test	shrunken log2 fold change
RRIRRRPPRLPRPRPRPWEEPRP	Escherichia coli TOP10	0.158
RRIRHRPPRLPRPRPRPGERPRP	Escherichia coli TOP10	-0.134
RRIRCRPPRLPRPRPRPETRPRP	Escherichia coli TOP10	0.209
RRIRQRPPRLPRPRPRPVWEPRP	Escherichia coli TOP10	0.0571
RRIRWRPPRLPRPRPRPPRIPRP	Escherichia coli TOP10	0.245
RRIRPRPPRLPRPRPRPIQDPRP	Escherichia coli TOP10	-0.239
RRIRSRPPRLPRPRPRPNYQPRP	Escherichia coli TOP10	-0.199
RRIRHRPPRLPRPRPRPHLYPRP	Escherichia coli TOP10	-0.24
RRIRERPPRLPRPRPRPKIQPRP	Escherichia coli TOP10	-0.259
RRIRTRPPRLPRPRPRPRRIPRP	Escherichia coli TOP10	-0.16
RRIRSRPPRLPRPRPRPMVEPRP	Escherichia coli TOP10	0.884
RRIRIRPPRLPRPRPRPSTFPRP	Escherichia coli TOP10	-0.329
RRIRARPPRLPRPRPRPGTTPRP	Escherichia coli TOP10	0.143
RRIRYRPPRLPRPRPRPCMPPRP	Escherichia coli TOP10	-0.123
RRIRVRPPRLPRPRPRPQPEPRP	Escherichia coli TOP10	0.23

---

# Test system: Escherichia coli TOP10
# experimental.protocol: shrunken log2 fold change of peptide-encoding DNA abundance (4.5 h post-induction vs induction); higher = less antimicrobial activity (less host growth inhibition)
# condition.info: time post-induction: 4.5 h; library: site-saturation at positions 5, 18, 19, 20

biopolymer.sequence	shrunken log2 fold change
RRIRDRPPRLPRPRPRPPCQPRP	0.029
RRIRKRPPRLPRPRPRPNCIPRP	-0.0156
RRIRDRPPRLPRPRPRPKELPRP	0.0843
RRIRRRPPRLPRPRPRPKDYPRP	-0.485
RRIRLRPPRLPRPRPRPWRPPRP	0.105
RRIRARPPRLPRPRPRPTQCPRP	0.391
RRIRWRPPRLPRPRPRPGNVPRP	-0.127
RRIRWRPPRLPRPRPRPCMNPRP	0.297
RRIRARPPRLPRPRPRPFNEPRP	-0.1
RRIRTRPPRLPRPRPRPIKGPRP	-0.331
RRIRSRPPRLPRPRPRPRVKPRP	-0.224
RRIRFRPPRLPRPRPRPCMGPRP	-0.49
RRIRVRPPRLPRPRPRPPQIPRP	0.22
RRIRVRPPRLPRPRPRPHINPRP	-0.524
RRIRARPPRLPRPRPRPICWPRP	0.231

---

# Tested on: Escherichia coli TOP10
# experimental.protocol: shrunken log2 fold change of peptide-encoding DNA abundance (4.5 h post-induction vs induction); higher = less antimicrobial activity (less host growth inhibition)
# condition.info: time post-induction: 4.5 h; library: site-saturation at positions 5, 18, 19, 20

biopolymer.sequence	shrunken log2 fold change
RRIRKRPPRLPRPRPRPIQHPRP	-0.311
RRIRMRPPRLPRPRPRPNDKPRP	0.145
RRIRWRPPRLPRPRPRPVWVPRP	0.257
RRIRIRPPRLPRPRPRPSMLPRP	-0.422
RRIRIRPPRLPRPRPRPIASPRP	-0.567
RRIRMRPPRLPRPRPRPIHPPRP	-0.0207
RRIRYRPPRLPRPRPRPSCTPRP	-1.36
RRIRARPPRLPRPRPRPKSNPRP	0.253
RRIRVRPPRLPRPRPRPLPAPRP	0.449
RRIRGRPPRLPRPRPRPKFPPRP	0.251
RRIRLRPPRLPRPRPRPMFRPRP	-0.162
RRIRKRPPRLPRPRPRPLDTPRP	0.000649
RRIRPRPPRLPRPRPRPLSEPRP	0.126
RRIRYRPPRLPRPRPRPANFPRP	0.0515
RRIRYRPPRLPRPRPRPWLFPRP	0.0905
RRIRDRPPRLPRPRPRPTNLPRP	-0.182
RRIRNRPPRLPRPRPRPSFPPRP	-0.19
RRIRPRPPRLPRPRPRPAKAPRP	-0.0289
RRIRYRPPRLPRPRPRPMIPPRP	-0.727
RRIRQRPPRLPRPRPRPGIMPRP	-0.0424
RRIRARPPRLPRPRPRPRRLPRP	0.537
RRIRDRPPRLPRPRPRPCPGPRP	-0.0964
RRIRGRPPRLPRPRPRPHCMPRP	-0.207
RRIRSRPPRLPRPRPRPICYPRP	-0.475
RRIRDRPPRLPRPRPRPRDLPRP	0.139
RRIRCRPPRLPRPRPRPNPFPRP	-0.024
RRIRNRPPRLPRPRPRPCGMPRP	-0.45
RRIRCRPPRLPRPRPRPYYCPRP	-1.03
RRIRQRPPRLPRPRPRPNKQPRP	0.0262
RRIRARPPRLPRPRPRPNHVPRP	-0.31
RRIRERPPRLPRPRPRPVNFPRP	-0.0265
RRIRWRPPRLPRPRPRPAELPRP	-0.0722

---

# Test system: Escherichia coli TOP10
# experimental.protocol: shrunken log2 fold change of peptide-encoding DNA abundance (4.5 h post-induction vs induction); higher = less antimicrobial activity (less host growth inhibition)
# condition.info: time post-induction: 4.5 h; library: site-saturation at positions 5, 18, 19, 20
Field: class. Source value: shrunken log2 fold change. Ranges: class 0: < -0.5; class 1: ≥ -0.5 and < 0.2; class 2: ≥ 0.2

biopolymer.sequence	qualitative.label
RRIRYRPPRLPRPRPRPSALPRP	class 0
RRIRKRPPRLPRPRPRPSRIPRP	class 1
RRIRWRPPRLPRPRPRPNTYPRP	class 1
RRIRWRPPRLPRPRPRPPEQPRP	class 1
RRIRPRPPRLPRPRPRPNIMPRP	class 0
RRIRCRPPRLPRPRPRPSMHPRP	class 1
RRIRKRPPRLPRPRPRPNFGPRP	class 2
RRIRMRPPRLPRPRPRPAKSPRP	class 2
RRIRWRPPRLPRPRPRPNNEPRP	class 1
RRIRWRPPRLPRPRPRPLTTPRP	class 2
RRIRRRPPRLPRPRPRPYIPPRP	class 1
RRIRCRPPRLPRPRPRPRQCPRP	class 1
RRIRRRPPRLPRPRPRPALCPRP	class 2

---

# System: Escherichia coli TOP10
# experimental.protocol: shrunken log2 fold change of peptide-encoding DNA abundance (4.5 h post-induction vs induction); higher = less antimicrobial activity (less host growth inhibition)
# condition.info: time post-induction: 4.5 h; library: site-saturation at positions 5, 18, 19, 20
The entries below come with measured shrunken log2 fold change values attached.

biopolymer.sequence	shrunken log2 fold change
RRIRDRPPRLPRPRPRPMWAPRP	-0.0235
RRIRRRPPRLPRPRPRPNMRPRP	0.104
RRIRKRPPRLPRPRPRPVELPRP	0.111
RRIRIRPPRLPRPRPRPCLSPRP	-0.0164
RRIRRRPPRLPRPRPRPKKVPRP	0.242
RRIRIRPPRLPRPRPRPSTTPRP	-0.189
RRIRERPPRLPRPRPRPHLVPRP	-0.125
RRIRKRPPRLPRPRPRPTQRPRP	1.13
RRIRCRPPRLPRPRPRPATCPRP	-0.0745
RRIRERPPRLPRPRPRPDHAPRP	-0.318
RRIRIRPPRLPRPRPRPFFDPRP	-0.417
RRIRWRPPRLPRPRPRPMHSPRP	-0.0572
RRIRPRPPRLPRPRPRPCTEPRP	0.0737
RRIRNRPPRLPRPRPRPINFPRP	-0.27
RRIRDRPPRLPRPRPRPDNSPRP	0.0428

---

# Test system: Escherichia coli TOP10;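 note: peptides expressed intracellularly from a pBAD plasmid library in pooled LB shake-flask culture, induced with 0.3% L-arabinose, DNA abundance read by NGS, three biological replicates, DESeq2 with apeglm shrinkage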
# experimental.protocol: shrunken log2 fold change of peptide-encoding DNA abundance (4.5 h post-induction vs induction); higher = less antimicrobial activity (less host growth inhibition)
# condition.info: time post-induction: 4.5 h; library: site-saturation at positions 5, 18, 19, 20

biopolymer.sequence	shrunken log2 fold change
RRIRFRPPRLPRPRPRPPSKPRP	-0.148
RRIRLRPPRLPRPRPRPHCFPRP	-0.0782
RRIRARPPRLPRPRPRPDDRPRP	-0.149
RRIRHRPPRLPRPRPRPQTSPRP	-0.264
RRIRMRPPRLPRPRPRPVAKPRP	1.43
RRIRNRPPRLPRPRPRPRDDPRP	0.145
RRIRWRPPRLPRPRPRPDWRPRP	-0.0316
RRIRDRPPRLPRPRPRPASPPRP	0.384
RRIRWRPPRLPRPRPRPCKGPRP	-0.186
RRIRFRPPRLPRPRPRPKSWPRP	0.199
RRIRIRPPRLPRPRPRPQPKPRP	-0.0343
RRIRQRPPRLPRPRPRPVDTPRP	-0.183
RRIRFRPPRLPRPRPRPSRDPRP	1.18
RRIRYRPPRLPRPRPRPMHKPRP	-0.454
RRIRARPPRLPRPRPRPHDRPRP	0.128
RRIRQRPPRLPRPRPRPIWFPRP	-0.000433
RRIRDRPPRLPRPRPRPRCIPRP	-0.0108
RRIRIRPPRLPRPRPRPSQHPRP	-0.71
RRIRKRPPRLPRPRPRPTHSPRP	0.168
RRIRIRPPRLPRPRPRPLCSPRP	-0.682
RRIRPRPPRLPRPRPRPALFPRP	0.2
RRIRGRPPRLPRPRPRPDNKPRP	-0.169
RRIRTRPPRLPRPRPRPMSPPRP	-0.152
RRIRWRPPRLPRPRPRPNYAPRP	-0.0925
RRIRGRPPRLPRPRPRPAGYPRP	0.164
RRIRLRPPRLPRPRPRPLRNPRP	0.737
RRIRNRPPRLPRPRPRPTWIPRP	-0.0601
RRIRVRPPRLPRPRPRPCCNPRP	-0.426
RRIRSRPPRLPRPRPRPMQLPRP	0.115
RRIRCRPPRLPRPRPRPVIIPRP	-1.28
RRIRERPPRLPRPRPRPKFWPRP	0.375
RRIRNRPPRLPRPRPRPLQSPRP	-0.0505
